For Beta-2 adrenergic receptor (Homo sapiens, UniProt P07550), measured pKi is reported for the entries below.
Entry type: numeric. Quantity: pKi, the -log10 of concentration in molar units.

[in] Find the measured pKi: item COc1cc(CC2c3cc(O)c(O)cc3CCN2Cc2cccc(N)c2)cc(OC)c1OC (stereo unspecified) [TMQ, N-amino-benzyl] , target or system Beta-2 adrenergic receptor (Homo sapiens, UniProt P07550).
[out] 6.03

[in] Next up: COc1cc(C[C@@H]2NCCc3cc(O)c(O)c(F)c32)cc(OC)c1OC [TMQ, S-(+)-8-Fluoro]
[out] 7.99

[in] Same question for COc1cc(CC2NCCc3cc(O)c(O)c(F)c32)cc(OC)c1OC (racemic) [NSC_128658] please.
[out] 8.06

[in] Cool, now COc1cc(CC2NCCc3c2cc(O)c(O)c3I)cc(OC)c1OC (stereo unspecified) [TMQ, 5-Iodo]
[out] 7.99

[in] Would you mind doing COc1cc(C[C@H]2NCCc3cc(O)c(O)c(F)c32)cc(OC)c1OC [TMQ, R-(-)-8-Fluoro] as well?
[out] 6.36

[in] And what about the compound COc1cc(CC2NCCc3cc(O)c(O)cc32)cc(N)c1OC (stereo unspecified) [TMQ, 3'-Amino] ?
[out] 6.85

====

Molecular target: Beta-1 adrenergic receptor (Cavia porcellus, UniProt B0FL73)
Sequence (B0FL73 whole entry): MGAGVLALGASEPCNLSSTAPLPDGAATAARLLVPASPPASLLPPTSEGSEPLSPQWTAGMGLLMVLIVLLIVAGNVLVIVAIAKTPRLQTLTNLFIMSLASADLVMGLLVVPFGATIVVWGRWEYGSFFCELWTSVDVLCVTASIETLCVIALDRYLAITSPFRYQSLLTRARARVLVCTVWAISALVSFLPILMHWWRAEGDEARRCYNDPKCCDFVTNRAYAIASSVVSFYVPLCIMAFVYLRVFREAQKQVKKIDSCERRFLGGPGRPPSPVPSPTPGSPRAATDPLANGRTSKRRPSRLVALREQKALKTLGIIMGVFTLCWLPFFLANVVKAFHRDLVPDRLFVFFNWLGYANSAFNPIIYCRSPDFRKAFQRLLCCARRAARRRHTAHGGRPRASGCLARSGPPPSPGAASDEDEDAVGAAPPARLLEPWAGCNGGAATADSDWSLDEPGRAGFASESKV
I'd appreciate it if you could supply Ki values for the items below.
Respond numerically; units are nM and should not be typed.

[in] Entry COc1cc(CC2NCCc3c2cc(O)c(O)c3C(F)(F)F)cc(OC)c1OC (centres undefined) , system Beta-1 adrenergic receptor (Cavia porcellus, UniProt B0FL73): what Ki was measured?
[out] 1100

[in] Another molecule: COc1cc(CC2c3cc(O)c(O)cc3CCN2Cc2cccc(Cl)c2)cc(OC)c1OC (centres undefined)
[out] 6170

[in] Also COc1cc(C[C@@H]2NCCc3cc(O)c(O)cc32)cc(OC)c1OC , if possible.
[out] 110

====

Biological target: Beta-1 adrenergic receptor (Cavia porcellus, UniProt B0FL73)
pKi: −log10 of the molar value.
Mark met for reported pKi of 6 or greater; mark not met for anything smaller.

[in] Kindly determine if pKi recorded for CC(C)NCC(O)COc1cccc2[nH]ccc12 (stereo not drawn) is above or exactly 6.
[out] met

[in] Next compound: COc1cc(CC2c3cc(O)c(O)cc3CCN2CCO)cc(OC)c1OC (stereo not drawn) [TMQ, N-hydroxyethyl]
[out] not met

[in] Cool, now CC(C)(C)NCC(O)c1cc(O)cc(O)c1 (racemic) [Terbutaline,(+/-)]
[out] not met

[in] Also COc1cc(CC2NCCc3cc(O)c(O)cc32)cc2c1OS(=O)O2 (stereo not drawn) ?
[out] not met

[in] What do you get for COc1cc(CC2NCCc3cc(O)c(O)c(I)c32)cc(OC)c1OC (stereo not drawn) ?
[out] met

[in] Item: COc1cc(CC2NCCc3cc(O)c(O)cc32)cc([N+](=O)[O-])c1OC (stereo not drawn)
[out] met

[in] Consider next the compound COc1cc(CC2c3cc(O)c(O)cc3CCN2Cc2ccc(Cl)c(Cl)c2)cc(OC)c1OC (stereo not drawn) in the same way.
[out] not met

[in] Repeat for the following compound: COc1cc(CC2NCCc3cc(O)c(O)cc32)cc(N)c1OC (stereo not drawn)
[out] met
